Value source: the supplement of paper PMC11451515

# System: NOMO1
# Assay Name: cell viability relative to DMSO control; higher = less cytotoxic
# Condition: HPLM + 10% dialyzed FBS; 48 h; 0.0632 µM
Reported Metric: cell viability (%)

[[record]]
compound = "CC(=O)N(C)c1cccc(-c2ccnc3c(C(=O)c4cccs4)cnn23)c1"
experimental_target = "NOMO1"
numeric_result = 99.4

[[record]]
compound = "C[C@](O)(COc1ccc(C#N)cc1)C(=O)Nc1ccc(C#N)c(C(F)(F)F)c1"
experimental_target = "NOMO1"
numeric_result = 90.1

[[record]]
compound = "COC1=CC=CC2=C1C(=NC(=N2)C3=CC=CS3)NN4C(=O)\\C=C(C)/C4=O"
experimental_target = "NOMO1"
numeric_result = 77.6

[[record]]
compound = "CN(CC#C)C/C1=C/C2=CC=CC=C2OC3=CC=CC=C13"
experimental_target = "NOMO1"
numeric_result = 98.9

[[record]]
compound = "O=NN(CCCl)C(=O)NCCCl"
experimental_target = "NOMO1"
numeric_result = 128

[[record]]
compound = "O=C([O-])C(O)Cc1ccc(O)c(O)c1 (centres undefined)"
experimental_target = "NOMO1"
numeric_result = 116

[[record]]
compound = "CC(C)OC(=O)OCOP(=O)(CO[C@H](C)Cn1cnc2c(N)ncnc21)OCOC(=O)OC(C)C.O=C(O)C=CC(=O)O"
experimental_target = "NOMO1"
numeric_result = 133

[[record]]
compound = "C\\C1=C\\C(=O)OC2=C1C=CC(=C2)O"
experimental_target = "NOMO1"
numeric_result = 120

[[record]]
compound = "COc1cc2nc(N(C)CCCNC(=O)C3CCCO3)nc(N)c2cc1OC (centres undefined)"
experimental_target = "NOMO1"
numeric_result = 96.3

[[record]]
compound = "CC1(C)CC(=O)c2c(C(F)(F)F)nn(-c3ccc(C(N)=O)c(NC4CCC(O)CC4)c3)c2C1 (centres undefined)"
experimental_target = "NOMO1"
numeric_result = 96.9

[[record]]
compound = "OC1=C(O)C2=C(\\C=C/C(=O)O2)C=C1"
experimental_target = "NOMO1"
numeric_result = 113

[[record]]
compound = "COc1c(C)cnc(Cn2cnc3c(Cl)nc(N)nc32)c1C"
experimental_target = "NOMO1"
numeric_result = 151

[[record]]
compound = "O=C(NOCC(O)CO)c1cc(Br)c(F)c(F)c1Nc1ccc(I)cc1F (centres undefined)"
experimental_target = "NOMO1"
numeric_result = 59.2

[[record]]
compound = "OC[C@H]1O[C@@H](O[C@@H]2[C@@H](CO)O[C@](O)(CO)[C@H]2O)[C@H](O)[C@@H](O)[C@H]1O"
experimental_target = "NOMO1"
numeric_result = 99.5

[[record]]
compound = "CC(=O)Nc1ccc(OC[C@](C)(O)C(=O)Nc2ccc([N+](=O)[O-])c(C(F)(F)F)c2)cc1"
experimental_target = "NOMO1"
numeric_result = 87.7

[[record]]
compound = "O=C(OC)[C@]12CC[C@@]3(C)[C@]4(C)CC[C@H]5[C@@](C)(C)C(=O)C(=C[C@]5(C)C4=CC(=O)[C@@H]3[C@@H]2C[C@](C)(C)CC1)C#N"
experimental_target = "NOMO1"
numeric_result = 110

[[record]]
compound = "CC(C)(C)c1cc(NC(=O)Nc2ccc(-c3cn4c(n3)sc3cc(OCCN5CCOCC5)ccc34)cc2)no1"
experimental_target = "NOMO1"
numeric_result = 101

[[record]]
compound = "CC(C)C(C)/C=C/C(C)C1CCC2C3=CC=C4CC(O)CCC4(C)C3CCC21C (centres undefined)"
experimental_target = "NOMO1"
numeric_result = 104

[[record]]
compound = "Cc1cn2c(-c3cn[nH]c3)cnc2c(Nc2ccc(C(=O)N3CCNCC3)cc2F)n1"
experimental_target = "NOMO1"
numeric_result = 96.5

